- Protocol Description: Tanguay_ZF_120hpf_TR_legacy: (Legacy) Oregon State University Tanguay Lab 120 Hour Post-fertilization zebrafish Assay for Touch Response (AID 2283667)
Records with an inconclusive call do not appear. Calls of active or inactive are those of the source. How the source made its calls: active means hit-call score of the fitted dose curve at least 0.9, where 1 is the maximum; inconclusive means response in the unintended direction; inactive means score below 0.9.
Response enum: 1.0 = active, 0.0 = inactive

Here are 2 compounds together with their reported answers.
> print(dat)
                                   compound  assigned.category
1  COc1ccc(C(=O)Nc2nc3ccccc3c(NCc3ccccc3)c2C#N)cc1                0.0
2  CC(C)(O)c1ccc(CNC(=O)c2cccnc2Oc2ccc(F)cc2)cc1                0.0

Ask: Tell me the assay call for O=C1NC(=O)C(c2ccccc2)(c2ccccc2)N1 please.
Reply: 0.0

Ask: What classification did CC(N)=O end up with in this test?
Reply: 0.0
